TEST: Determination of pharmacokinetic parameters following intravenous and oral administration (rats)
Format: in vivo, male Wistar rats
TEST_CONDITIONS: intravenous administration in rats
Consider the cut-off 0.3 kg·h/L. If the recorded AUCnorm is strictly smaller, the label is Satisfied; if not, the label is Not satisfied.

molecule="Cc1cc(OCc2c(F)cccc2F)c2nc(C)c(C(=O)NCC(C)(N)CCC(F)(F)F)n2c1 (single isomer, unassigned) [Example 409]" category=Satisfied
molecule="Cc1cc(OCc2c(F)cccc2F)c2nc(C)c(C(=O)NCC(C)(N)CF)n2c1 (single isomer, unassigned; enantiomer b) [Example 284]" category="Not satisfied"
molecule="Cc1cc(OCc2c(F)ccc(F)c2F)c2nc(C)c(C(=O)NCC(C)(N)CF)n2c1 (single isomer, unassigned; enantiomer a) [Example 285]" category="Not satisfied"
molecule="Cc1cc(OCc2c(F)cccc2F)c2nc(C)c(C(=O)NCC3(N)CCCCC3)n2c1 [Example 307]" category="Not satisfied"
molecule="CCCC(C)(N)CNC(=O)c1c(C)nc2c(OCc3c(F)cccc3F)cc(C(F)F)cn12 (single isomer, unassigned; enantiomer b) [Example 289]" category="Not satisfied"
molecule="Cc1cc(OCc2c(F)cccc2F)c2nc(C)c(C(=O)NC[C@H]3CCCCN3)n2c1 [Example 173]" category="Not satisfied"
molecule="CCCC(C)(N)CNC(=O)c1c(C)nc2c(OCc3c(F)cccc3F)cc(C3CC3)cn12 (single isomer, unassigned; enantiomer b) [Example 281]" category=Satisfied
molecule="Cc1nc2c(OCc3c(F)cccc3F)cccn2c1C(=O)NC(CN)CCCC(F)(F)F (racemic) [Example 4]" category="Not satisfied"
molecule="CCC(C)(N)CNC(=O)c1c(C)nc2c(OCc3c(F)cccc3F)cc(Cl)cn12 (single isomer, unassigned) [Example 194]" category="Not satisfied"
molecule="Cc1cc(OCc2c(F)ccc(F)c2F)c2nc(C)c(C(=O)NCC(C)(N)CCC(F)(F)F)n2c1 (single isomer, unassigned) [Example 411]" category="Not satisfied"
molecule="CCCC(C)(N)CNC(=O)c1c(C)nc2c(OCc3cccc(F)c3F)cc(C)cn12 (racemic) [Example 303]" category=Satisfied
molecule="Cc1nc2c(OCc3c(F)cccc3F)cc(C(F)F)cn2c1C(=O)NCC(C)(N)CF (single isomer, unassigned; enantiomer a) [Example 291]" category="Not satisfied"
molecule="CCCC(C)(N)CNC(=O)c1c(C)nc2c(OCc3c(F)ccc(F)c3F)cc(C)cn12 (single isomer, unassigned) [Example 304]" category="Not satisfied"

* * *

Quick list: MEC (minimal effective concentration) per entry.
SYSTEM: recombinant guanylate cyclase reporter cell line (Rattus norvegicus, UniProt P19686+P20595)
Construct: expressed in transfected cells; host or cells: recombinant reporter cell line
Sequence (P19686 whole entry): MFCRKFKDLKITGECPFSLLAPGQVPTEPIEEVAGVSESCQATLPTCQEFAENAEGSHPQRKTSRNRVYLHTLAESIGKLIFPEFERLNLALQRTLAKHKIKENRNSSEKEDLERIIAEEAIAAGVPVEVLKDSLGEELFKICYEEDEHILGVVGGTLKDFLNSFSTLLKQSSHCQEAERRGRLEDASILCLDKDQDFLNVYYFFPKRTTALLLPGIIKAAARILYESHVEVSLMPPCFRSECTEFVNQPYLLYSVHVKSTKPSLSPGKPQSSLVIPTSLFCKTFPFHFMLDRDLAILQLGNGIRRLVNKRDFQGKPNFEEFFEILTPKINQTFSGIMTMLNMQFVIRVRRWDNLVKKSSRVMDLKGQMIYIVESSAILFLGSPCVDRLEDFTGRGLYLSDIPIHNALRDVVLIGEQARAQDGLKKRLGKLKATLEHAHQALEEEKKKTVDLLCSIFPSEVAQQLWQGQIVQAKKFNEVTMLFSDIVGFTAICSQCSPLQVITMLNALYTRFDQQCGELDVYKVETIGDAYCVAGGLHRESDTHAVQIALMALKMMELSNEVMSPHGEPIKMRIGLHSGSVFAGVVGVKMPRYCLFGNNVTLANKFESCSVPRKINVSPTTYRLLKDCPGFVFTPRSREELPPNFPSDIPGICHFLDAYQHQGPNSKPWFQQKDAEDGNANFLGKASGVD
Sequence (P20595 whole entry): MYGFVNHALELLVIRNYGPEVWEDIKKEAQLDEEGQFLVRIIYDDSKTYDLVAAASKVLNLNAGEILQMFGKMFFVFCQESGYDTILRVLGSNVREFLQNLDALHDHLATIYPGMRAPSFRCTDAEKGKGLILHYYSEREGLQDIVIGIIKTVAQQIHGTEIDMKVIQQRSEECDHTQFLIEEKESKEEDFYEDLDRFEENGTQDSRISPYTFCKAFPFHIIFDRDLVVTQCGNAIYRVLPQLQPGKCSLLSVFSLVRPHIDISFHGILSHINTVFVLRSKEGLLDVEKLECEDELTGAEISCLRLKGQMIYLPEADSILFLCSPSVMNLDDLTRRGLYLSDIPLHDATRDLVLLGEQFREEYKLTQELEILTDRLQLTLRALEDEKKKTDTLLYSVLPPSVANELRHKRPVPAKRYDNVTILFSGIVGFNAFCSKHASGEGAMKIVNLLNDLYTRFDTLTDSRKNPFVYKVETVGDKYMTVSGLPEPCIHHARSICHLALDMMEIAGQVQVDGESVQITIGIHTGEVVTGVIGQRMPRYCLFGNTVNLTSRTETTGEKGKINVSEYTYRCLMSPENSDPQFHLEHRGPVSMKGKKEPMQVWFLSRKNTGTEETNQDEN
TEST: Action on recombinant guanylate cyclase reporter cell line
Assay type: cell-based
TEST_CONDITIONS: in some cases mean values from individual determinations
Structures can show the parent of a compound that is named as a salt.
RECORDED_ENDPOINT: MEC (minimal effective concentration) (µM)

compound=Cc1nc2c(OCc3c(F)cccc3F)cc(Cl)cn2c1C(=O)NCC(C)(C)N1CCCC1 uom=µM test_value=1.00
compound="Cc1nc2c(OCc3c(F)cccc3F)cccn2c1C(=O)NCC(C)(N)CCOCc1ccccc1 (single isomer, unassigned; enantiomer b) [Example 267]" uom=µM test_value=0.10
compound="Cc1cc(OCc2c(F)ccc(C3CC3)c2F)c2nc(C)c(C(=O)NCC(C)(N)CF)n2c1 (centres unmarked)" uom=µM test_value=1.00
compound="Cc1cc(OCc2c(F)cccc2F)c2nc(C)c(C(=O)NCC3CN(Cc4ccccc4)CCO3)n2c1 (racemic)" uom=µM test_value=1.00
compound="Cc1nc2c(OCc3c(F)cccc3F)cccn2c1C(=O)NC(C)[C@H](C)N (some centres unmarked) [Example 120]" uom=µM test_value=0.30
compound="Cc1cc(OCc2c(F)cccc2F)c2nc(C)c(C(=O)NCC(C)(N)CF)n2c1 (racemic) [Example 282, Formate]" uom=µM test_value=0.3
compound="CCCC(C)(N)CNC(=O)c1c(C)nc2c(OCc3c(F)cccc3F)c(F)ccn12 (racemic)" uom=µM test_value=1.00
compound="Cc1cc(OCc2c(F)cccc2F)c2nc(C)c(C(=O)NC(CN)c3csc4ccccc34)n2c1 (racemic)" uom=µM test_value=1.00
compound="Cc1cc(OCc2c(F)cccc2F)c2nc(C)c(C(=O)NCC(N)c3cccc(C(F)(F)F)c3)n2c1 (racemic)" uom=µM test_value=3.00
compound="Cc1cc(OCc2c(F)cccc2F)c2nc(C)c(C(=O)NC(CN)c3ccc4ncccc4c3)n2c1 (racemic)" uom=µM test_value=1.00
compound="Cc1nc2c(OCc3c(F)cccc3F)cccn2c1C(=O)NCC(C(C)C)N(C)C (single isomer, unassigned; ent-8) [Example 189]" uom=µM test_value=3.00
compound="Cc1cc(OCc2c(F)cccc2F)c2nc(C)c(C(=O)NC(C#N)CN)n2c1 (racemic)" uom=µM test_value=1.00
compound="Cc1nc2c(OCc3c(F)cccc3F)cccn2c1C(=O)NC1CNc2ccccc2C1 (racemic) [Example 75]" uom=µM test_value=1.00
compound="Cc1nc2c(OCc3c(F)cccc3F)cccn2c1C(=O)NC(CN)CC(C(F)(F)F)C(F)(F)F (racemic) [Example 5, trifluoroacetate]" uom=µM test_value=1.00
compound="C#Cc1cc(OCc2c(F)cccc2F)c2nc(C)c(C(=O)NCC(C)(N)CCC)n2c1 (centres unmarked) [Example 355]" uom=µM test_value=0.30
compound="Cc1nc2c(OCc3c(F)cccc3F)cccn2c1C(=O)NC1CC2CCC(C1)N2C (centres unmarked)" uom=µM test_value=1.00
compound=Cc1nc2c(OCc3c(F)cccc3F)cccn2c1C(=O)NCCNc1ccc(F)cc1 uom=µM test_value=1.00
compound="CCCC(C)(N)CNC(=O)c1c(C)nc2c(OCc3c(F)cccc3F)cc(Br)cn12 (centres unmarked)" uom=µM test_value=0.10
compound="Cc1cc(OCc2c(F)cccc2F)c2nc(C)c(C(=O)NCC(C)(N)C(F)(F)F)n2c1 (racemic) [Example 239]" uom=µM test_value=0.30
compound="Cc1cc(OCc2c(F)cccc2F)c2nc(C)c(C(=O)NCC(C)(N)CC(C)C)n2c1 (single isomer, unassigned) [Example 219]" uom=µM test_value=0.30
compound=Cc1cc(OCc2c(F)cccc2F)c2nc(C)c(C(=O)N[C@@H]3CC[C@](C)(N)C3(C)C)n2c1 uom=µM test_value=1.00
compound="Cc1nc2c(OCc3c(F)cccc3F)cccn2c1C(=O)NC(CN)c1ccccc1 (racemic) [Example 16, dihydrochloride]" uom=µM test_value=0.30
compound="CCCC(C)(N)CNC(=O)c1c(C)nc2c(OCc3c(F)c(F)cc(F)c3F)cc(C)cn12 (racemic)" uom=µM test_value=0.30
compound="Cc1nc2c(OCc3c(F)cccc3F)cccn2c1C(=O)N[C@H]1CCCNC1 [Example 60, dihydrochloride]" uom=µM test_value=0.30
compound="COCC(C)(N)CNC(=O)c1c(C)nc2c(OCc3c(F)cccc3F)cc(C)cn12 (single isomer, unassigned) [Example 198]" uom=µM test_value=0.30
compound=Cc1nc2c(OCc3c(F)cccc3F)cc(Cl)cn2c1C(=O)NCCN1C[C@@H](C)O[C@@H](C)C1 uom=µM test_value=0.30
compound="Cc1cc(OCc2c(F)cccc2F)c2nc(C)c(C(=O)NCC(N)c3cccc(OC(F)(F)F)c3)n2c1 (racemic)" uom=µM test_value=3.00
compound=Cc1cc(OCc2c(F)cccc2F)c2nc(C)c(C(=O)NCCN3CCN(C(C)C)CC3)n2c1 uom=µM test_value=1.00
compound="COCC(C)(N)CNC(=O)c1c(C)nc2c(OCc3c(F)cccc3F)cccn12 (racemic) [Example 213]" uom=µM test_value=1.00
